Target: T1, human BCMA (human, UniProt Q02223 1-184)
T1 construct: whole, on cells; the cell line is named under assay; also called TNFRSF17; CD269
T1 sequence (looked up): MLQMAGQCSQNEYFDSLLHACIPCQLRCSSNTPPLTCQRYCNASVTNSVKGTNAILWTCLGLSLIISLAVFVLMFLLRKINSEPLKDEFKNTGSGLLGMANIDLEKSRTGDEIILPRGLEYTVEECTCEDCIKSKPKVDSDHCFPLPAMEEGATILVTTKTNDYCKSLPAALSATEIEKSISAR
Test: flow cytometry, NCI-H929 cells, Flag-tagged VH single domain, anti-tag secondary antibody
Collected log10(EC50) values appear next to each entry.
For clarity, the numbers are log10 values of EC50 expressed in nM.

- BINDER: "PR004567, PR001046 VH-derived single-domain variant 1046-R2-5E1 (VHH, Tested as VH single domain with Flag and His tags; not shown: Flag and His tags) VHH: EVQLVETGGGLIQPGGSLRLSCAASGFTVSDSYMTWVRQAPGKGLEWVSVIFSGGKTYVADSVKGRFTISRDNAKNTLYLQMNSLRAEDTALYYCARRNYDQTRGTDVFDIWGQGTMVTVSS"
  log10(EC50): 0.24
- BINDER: "PR004570, PR001046 VH-derived single-domain variant 1046-R2-6D6 (VHH, Tested as VH single domain with Flag and His tags; not shown: Flag and His tags) VHH: EVQLVETGGGLIQPGGSLRLSCAASGFTVSDAYMTWVRQAPGKGLEWVSVIFSGGRTYYADSVKGRFTISRDNAKNTLYLQMNSLRAEDTALYYCARRNYDQTRGTDVFDIWGQGTMVTVSS"
  log10(EC50): 0.33
- BINDER: "PR004562, PR001046 VH-derived single-domain variant 1046-R2-10H5 (VHH, Tested as VH single domain with Flag and His tags; not shown: Flag and His tags) VHH: EVQLVETGGGLIQPGGSLRLSCAASGFTVSDSYMTWVRQAPGKGLEWVSVIFSGGKTYYSDSVKGRFTISRDNAKNTLYLQMNSLRAEDTALYYCARRNYDQTLGTDVFDIWGQGTMVTVSS"
  log10(EC50): 0.09
- BINDER: "PR004564, PR001046 VH-derived single-domain variant 1046-R2-2D4 (VHH, Tested as VH single domain with Flag and His tags; not shown: Flag and His tags) VHH: EVQLVETGGGLIQPGGSLRLSCAASGFTVSDSYMTWVRQAPGKGLEWVSVIFSGGRTYYSDSVKGRFTISRDNAKNTLYLQMNSLRAEDTALYYCARRNYDQTLGTDVFDIWGQGTMVTVSS"
  log10(EC50): 0.13
- BINDER: "PR004559, PR001046 VH-derived single-domain variant 1046-R1-12G7 (VHH, Tested as VH single domain with Flag and His tags; also called PR001046-R1-12G7; not shown: Flag and His tags) VHH: EVQLVETGGGLIQPGGSLRLSCAASGFTVSDNYMTWVRQAPGKGLEWVSVIFSGGKTYYADSVKGRFTISRDNAKNTLYLQMNSLRAEDTALYYCARRNYDDTRGTDVFDIWGQGTMVTVSS"
  log10(EC50): 1.35

Lab note: PR004569, PR001046 VH-derived single-domain variant 1046-R2-5H2 (VHH, Tested as VH single domain with Flag and His tags; not shown: Flag and His tags) VHH: EVQLVETGGGLIQPGGSLRLSCAASGFTVSDSYMTWVRQAPGKGLEWVSVIFSGGRTYYSDSVKGRFTISRDNAKNTLYLQMNSLRAEDTALYYCARRNYDQTRGTDVFDIWGQGTMVTVSS gave log10(EC50) of 0.77

Lab note: PR004568, PR001046 VH-derived single-domain variant 1046-R2-5H1 (VHH, Tested as VH single domain with Flag and His tags; not shown: Flag and His tags) VHH: EVQLVETGGGLIQPGGSLRLSCAASGFTVSDAYMTWVRQAPGKGLEWVSVIFSGGRTYVADSVKGRFTISRDNAKNTLYLQMNSLRAEDTALYYCARRNYDDTRGTDVFDIWGQGTMVTVSS gave log10(EC50) of 0.45

Lab note: PR004563, PR001046 VH-derived single-domain variant 1046-R2-1A1 (VHH, Tested as VH single domain with Flag and His tags; not shown: Flag and His tags) VHH: EVQLVETGGGLIQPGGSLRLSCAASGFTVYDNYMTWVRQAPGKGLEWVSVIFSGGKTYVADSVKGRFTISRDNAKNTLYLQMNSLRAEDTALYYCARRNYDQTRGTDVFDIWGQGTMVTVSS gave log10(EC50) of 0.90
